Residues, ends and D or L forms follow the SMILES beside them. *: point of attachment. Cbz = O=C(OCc1ccccc1)*
Each entry below lists one item and its recorded melting point value.

Example results:
{"compound": "CNc1nnc(S[Si](C)(C)C)s1", "meas value": "80 to 82 °C"}
{"compound": "COc1cc(OC)cc(-c2ncoc2-c2ccc(OC)c(O)c2F)c1", "meas value": "168 to 172 °C"}
{"compound": "C=C(Cc1ccccc1)C(=O)N[C@@H](CC(C)C)C(=O)O", "meas value": "56 to 60 °C"}
{"compound": "CCOC(=O)c1c(CCCCn2ccnc2)nc2cc(OC)c(OC)cc2c1-c1ccc(OC)c(OC)c1", "meas value": "119 to 120 °C"}
{"compound": "CCC1CN(O)CCN1O (centres undefined)", "meas value": "137 °C"}

[Q] Identify measured melting point corresponding to Cc1c(C#N)c(-c2ccc(C#N)cc2)c(C)n1Cc1cnc(Cl)c(C(O)C(F)(F)F)c1 (centres undefined)
[A] 200 to 201 °C

[Q] Identify measured melting point corresponding to O=S(=O)(N[C@H]1CC[C@H](CCN2CCN(c3nccc4c3OCC4)CC2)CC1)c1ccccc1
[A] 122 °C

[Q] Identify measured melting point corresponding to COc1cc(C)nc(NC(=O)NS(=O)(=O)c2ccsc2C(=O)N2CCCC2=O)n1
[A] 184 to 185 °C

[Q] Identify measured melting point corresponding to COC(=O)C(Cc1ccc(O)cc1)NC(=O)C(CO)NC(=O)C(Cc1c[nH]c2ccccc12)NC(=O)OCc1ccccc1 (stereo not drawn) (Cbz-Trp-Ser-Tyr-OMe; configuration not given here)
[A] 149 to 152 °C

----------
Each entry below lists one item and its recorded melting point value.

Example results:
{"compound": "CCCCc1nc(Cl)c(CO)n1Cc1ccc(OCc2ccccc2)cc1", "meas value": "115 to 116 °C"}
{"compound": "COc1cccc(Nc2cc(Nc3ccc(F)c(Cl)c3)ncn2)c1", "meas value": "214 to 216 °C"}
{"compound": "O=c1c2cccc(F)c2nc2sccn12", "meas value": "187 to 189 °C"}

[Q] Identify measured melting point corresponding to OC(Cc1ccc(F)cc1)c1ccc(F)cc1 (stereo unspecified)
[A] 48 to 50 °C

[Q] Identify measured melting point corresponding to O=C(O)c1ccc2c(c1)Sc1ccc(Cl)cc1C2
[A] 294 to 295 °C

[Q] Identify measured melting point corresponding to O=C1OC(=O)c2cc3cccnc3c3cc([N+](=O)[O-])cc1c23
[A] 268 to 269 °C

----------
Each entry below lists one item and its recorded melting point value.

Example results:
{"compound": "CC(Cc1ccccc1)CN(C)C1CCC(c2ccc3[nH]c(=O)oc3c2)CC1 (centres undefined)", "meas value": "43 to 48 °C"}
{"compound": "CCOC(=O)c1cn(C2CC2)c2cc(-c3cc(C)nc(C)c3)c(F)cc2c1=O", "meas value": "198 to 200 °C"}
{"compound": "CS(=O)(=O)c1ccc(C2=C(c3ccc(F)cc3)C(=O)OC2)c(F)c1", "meas value": "160 to 162 °C"}

[Q] Identify measured melting point corresponding to COc1cc(NC(=O)Nc2cccc3c2C2CC(O)CCN2C3=O)nc2ccccc12 (centres undefined)
[A] > 260 °C

[Q] Identify measured melting point corresponding to CC1(C)CN(c2c(C#N)cnn2-c2ccc(Cl)c(Cl)c2Cl)C1=O
[A] 147 to 149 °C

[Q] Identify measured melting point corresponding to CC(C)(C)OC(=O)N1C(=O)C(C2=COc3ccccc3O2)=C(c2cn(C(=O)OC(C)(C)C)c3ccc(OCc4ccccc4)cc23)C1=O
[A] 76 °C

[Q] Identify measured melting point corresponding to CC(C(=O)c1c(O)c2cccnc2n(-c2cccc(OC(F)(F)F)c2)c1=O)c1ccccc1 (centres undefined)
[A] 136 to 138 °C

[Q] Identify measured melting point corresponding to ClCCOc1ccc(C2=C(c3ccccc3)CCCc3ccccc32)cc1
[A] 171 to 172 °C

[Q] Identify measured melting point corresponding to CCOC(=O)c1cn(Cc2ccccc2)nc1NC(=O)NC1CCCCC1
[A] 94 to 95 °C
